system: HepG2; experiment: Cytotoxicity against human HepG2 cells assessed as inhibition of cell growth incubated for 24 hrs by MTT assay; format: functional, cell-based; settings: HepG2, 24 h
pIC50: −log10 of the molar value.
Listing of recorded pIC50 by entry.

Structure | Limit operator | pIC50
O=C1C=CC[C@@H]([C@@H](O)[C@H](Oc2c(O)cc3c(c2O)C(=O)C[C@@H](c2ccccc2)O3)c2ccccc2)O1 | = | 4.18
O=C1C=CC[C@H]([C@H](O)[C@H](c2ccccc2)c2c(O)cc3c(c2O)C(=O)C[C@@H](c2ccccc2)O3)O1 | < | 4.00
CNC(=O)c1cc(Oc2ccc(NC(=O)Nc3ccc(Cl)c(C(F)(F)F)c3)cc2)ccn1 | = | 4.85
O=C1C=CC[C@@H]([C@@H](O)[C@@H](c2ccccc2)c2c(O)cc3c(c2O)C(=O)C[C@@H](c2ccccc2)O3)O1 | = | 4.20
O=C1C=CC[C@H]([C@@H](O)[C@H](c2ccccc2)c2c(O)cc3c(c2O)C(=O)C[C@@H](c2ccccc2)O3)O1 | < | 4.00

###

tested on: HepG2; assay: Cytotoxicity against human HepG2 cells assessed as inhibition of cell growth incubated for 24 hrs by MTT assay; assay type: functional, cell-based; conditions: HepG2, 24 h
Listing of recorded IC50 by entry.
Property: IC50

Structure | Property | Result
O=C1C=CC[C@H]([C@@H](O)[C@H](Oc2c(O)cc3c(c2O)C(=O)C[C@@H](c2ccccc2)O3)c2ccccc2)O1 | IC50 | > 100 µM
O=C1C=CC[C@H]([C@@H](O)[C@H](c2ccccc2)c2c(O)cc(O)c3c2O[C@H](c2ccccc2)CC3=O)O1 | IC50 | > 100 µM
O=C1C=CC[C@H]([C@@H](O)[C@@H](c2ccccc2)c2c(O)cc(O)c3c2O[C@H](c2ccccc2)CC3=O)O1 | IC50 | 82 µM
O=C1C=CC[C@@H]([C@H](O)[C@@H](c2ccccc2)c2c(O)cc(O)c3c2O[C@H](c2ccccc2)CC3=O)O1 | IC50 | > 100 µM

###

system: LS-513; assay: Cytotoxicity against human LS-513 cells assessed as inhibition of cell growth incubated for 24 hrs by MTT assay; format: functional, cell-based; conditions: LS-513, 24 h
Listing of recorded IC50 by entry.

Structure | Measurement target | IC50, µM
O=C1C=CC[C@H]([C@@H](O)[C@H](c2ccccc2)c2c(O)cc3c(c2O)C(=O)C[C@@H](c2ccccc2)O3)O1 | LS-513 | 1.6
O=C1C=CC[C@@H]([C@H](O)[C@@H](c2ccccc2)c2c(O)cc(O)c3c2O[C@H](c2ccccc2)CC3=O)O1 | LS-513 | 2.4
O=c1[nH]cc(F)c(=O)[nH]1 | LS-513 | 84

###

test system: Staphylococcus aureus; assay: Synergistic antibacterial activity against Staphylococcus aureus SA1199B assessed as fractional inhibitory concentration index in presence of norfloxacin; type: functional
# if value of fractional inhibitory concentration index (FICI) reaches 0.3, tag 1 (yes); if it stays below, tag 0 (no)

Structure | Measurement target | Answer label
O=C1C=CC[C@H]([C@@H](O)[C@H](c2ccccc2)c2c(O)cc3c(c2O)C(=O)C[C@@H](c2ccccc2)O3)O1 | Staphylococcus aureus | 0 (no)
O=C1C=CC[C@@H]([C@@H](O)[C@@H](c2ccccc2)c2c(O)cc3c(c2O)C(=O)C[C@@H](c2ccccc2)O3)O1 | Staphylococcus aureus | 0 (no)
O=C1C=CC[C@H]([C@@H](O)[C@H](c2ccccc2)c2c(O)cc(O)c3c2O[C@H](c2ccccc2)CC3=O)O1 | Staphylococcus aureus | 1 (yes)
O=C1C=CC[C@H]([C@@H](O)[C@H](Oc2c(O)cc3c(c2O)C(=O)C[C@@H](c2ccccc2)O3)c2ccccc2)O1 | Staphylococcus aureus | 0 (no)
O=C1C=CC[C@@H]([C@@H](O)[C@H](Oc2c(O)cc3c(c2O)C(=O)C[C@@H](c2ccccc2)O3)c2ccccc2)O1 | Staphylococcus aureus | 0 (no)
O=C1C=CC[C@H]([C@@H](O)[C@@H](c2ccccc2)c2c(O)cc(O)c3c2O[C@H](c2ccccc2)CC3=O)O1 | Staphylococcus aureus | 1 (yes)
O=C1C=CC[C@@H]([C@H](O)[C@@H](c2ccccc2)c2c(O)cc(O)c3c2O[C@H](c2ccccc2)CC3=O)O1 | Staphylococcus aureus | 1 (yes)
